assay: label from the status in PepcDB records
OUTCOME_MEASURE: protein production

RECORD_SEQUENCE: LDAILIADDEGCYVDVNAAACELFGVSREELLASTIADFAAPEFNFTQAWQQFREQEQMSGEFQLHRPNGTVRATEFAAVANFIPHRHLSIIRDVSDRQQAKANLQNSEQRLQLALSASS
OUTCOME_MEASURE: protein production
REPORTED_RESULT: failed
//
RECORD_SEQUENCE: QLGGDMKTIAIADRTGEYEQLFKENDEFRFVHAEKTAEEYRKMGADKSGIDAVLEIRQDLLEDPNAVAIYGYKQLPASVSNHISRILSDYLSDKKIASYNIPDIKQILADSKIELSVHTYKWSEDGTNERTSGELASGIS
OUTCOME_MEASURE: protein production
REPORTED_RESULT: not failed
//
RECORD_SEQUENCE: MLPAYIRIHDQIKKEIDEGLWKIGDRLPSERDLAERFEVSRMTLRQAITLLVEEGILERRVGSGTYIASSRVQEKMRGTTSFTEIVKSQGKTPSTKLISYRRVHPSEQEIKFLDIKPKSYIIRMERVRYADDIPVVFEVTAIPEKIIKSFKKEAITKHFFKTLTDHGFVIGKSQQTISASNANEMTADYLAISRGHAVLTLAQVSYFENGMPFEYVRSQYVGERFEFYLENK
OUTCOME_MEASURE: protein production
REPORTED_RESULT: not failed
//
RECORD_SEQUENCE: MKELLKLDFFIQKKYIKSSIIVFLFLGITFALTQGMNYLYTMGTFIVFYLTIIPIEVERKSKFNIYLNSLPNKKSNYIYSKYLSTLIYIIVVNLFLYLFCTILGVISGSDFTLTLRAILPNIIVQLFYVSLTLPVYMIISHKFYRVVNIIFTILIMMISSILFNSLENENLQVLFNITNGVYGLAFGILALIISLIVSLNIYKKSEVS
OUTCOME_MEASURE: protein production
REPORTED_RESULT: failed

get_value(item= MTTLVPLNRIDSQKIEDLLDIGFGKDRHGRTAYRLRQGVSAIPELSFAAVDGDILQGIIQCWPIRLSCLNGKKLPMILLGPVAVHPDYQGHGIGQTLVQHSLDVADSSDITGHDAVMLIGDPEYYNRFFGFSDEETGDWRLPGPVEKRRLLARLTSPRL , readout=protein production) returns failed

get_value(item= MAVLYAGRPVQKCERSRLMFNIDQPDSAPDNEDHDGDVVMHGQGSFFGRRKGHKLRAHQADLIENLLPHLSLQIDSPAPEPLTTLFDPPVEHMRLEIGFGGGEHLIAEALAHPDTGFIGAEPYVNGMAKILARIEAENIRNIRLFAGDASELLAWVPAGSLARIDLIHPDPWPKRRHWKRRFVQDATVAAMARALTPHGEFRFVCDIDGYTAWTLAHLLRAPCFDWLAQRADDWRKPWPNYTMTRYGRKAEREGRRANYLRFERL , readout=protein production) returns failed

get_value(item= MRVLVLHSHPVEESYGKALYRQTVESLQKAGHMVDGCDLYEERFDPVLSRHDRLAYHDYPENLKLVESHVERLKAAEGLVICTPIWNFGFPAILKGYFDRVWLPGVSFELVNGKVESRLRHIRKLAAVLTYGATPFRAFAAGNPPKKIVKRVLRAQINPVRPVTFLAHYDMNNCTPETRAKFLARVGGAMERF , readout=protein production) returns failed

get_value(item= MTAGWCCRTVRAALFAAVCVLLAALGHVMMSGTAVPWWAMTVAALVTGGTGWCLAGRERGLALIVSVVVVAQGALHSAFSVAQSAAHSAGSVGADSMPKGSMGSDMSSVHMDSVHMDSMDMGNMGAGHLAHLGHDMGGGSSFGMLAAHSAAALLCGLWLAYGERAAFRILRALAGRLAAPLRLLLALPTPAHRPRIRVRRGSSDRTPRRLLLVHAITSRGPPVGTAVI , readout=protein production) returns failed

get_value(item= FLILLRKTLEQLQEKDTGNIFSEPVPLSEVPDYLDHIKKPMDFFTMKQNLEAYRYLNFDDFEEDFNLIVSNCLKYNAKDTIFYRAAVRLREQGGAVLRQARRQAEKMG , readout=protein production) returns not failed

get_value(item= MSLKDFAGRTAFVTGGANGVGIGLVRQLLNQGCKVAIADIRQDSIDKALATLEAEGSGPEVMGVQLDVASREGFKMAADEVEARFGPVSILCNNAGVNLFQPIEESSYDDWDWLLGVNLHGVVNGVTTFVPRMVERVKAGEQKGGHVVNTASMAAFLAAGSPGIYNTTKFAVRGLSESLHYSLLKYEIGVSVLCPGLVKSYIYASDDIRPDALKGEVKPVDKTAVERLAGVHEFGMEPDVIGARVIEAMKANRLHIFSHPDHKEELREVFDEIIAEYQDYPKDPGYDQRVAFEKFRADSFAEARRQSRAADEGHHHHHH , readout=protein production) returns not failed

get_value(item= MAASMARGVSARVLLRAAGGSWGPRAGHAAVTSRTFGSTGERRAGEDEADSPELPRDVVNVVFVDRSGKRIPVRGRVGDNVLHLAQRHGVDLEGACEASLACSTCHVYVSEAHLDLLPPPEEREDDMLDMAPLLQENSRLGCQIVLTPELEGAEFALPKITRNFYVDGHIPKPH , readout=protein production) returns failed

get_value(item= MRISAWLLCSLSFIAPLSWAESSPADIAAQKQQQILFFNHDDRDIVPDTAVWPWQAIGQLETASGNLCTATLISPHLALTAGHCVVTPPKGEIDNPVALRFLATENGWRYETTEIEALANKTLAKKLKADGEGWIVPPSAAPLDYALIRLKQTPPGIRPLPLWQGSRQELMQALKDNGQRVTQAGYPEDHQETLYRHQDCLITGWVHAAVMAHQCDTLPGDSGSPLMLNSAAGWVLMGIQSSAPDASERDRADNRAVSVTAIRQQLETLAKLSSPKPGSPKLSPK , readout=protein production) returns failed

get_value(item= MFNAYREYWNNITTMNASATRAQYWWPQLINYLVLGIYSAITGVYRYIEVTPNDGTIIKEWNTVTIIFFLLTALIWLANFTVRARRLHDRDHSNWWILFYLLPFIGTLVIFITLILPSKSHTRWPVNQSEI , readout=protein production) returns failed

get_value(item= MRIDIVTIFPACLDPLRQSLPGKAIESGLVDLNVHDLRRWTHDVHHSVDDAPYGGGPGMVMKAPVWGEALDEICSSETLLIVPTPAGVLFTQATAQRWTTESHLVFACGRYEGIDQRVVQDAARRMRVEEVSIGDYVLPGGESAAVVMVEAVLRLLAGVLGNPASHQDDSHSTGLDGLLEGPSYTRPASWRGLDVPEVLLSGDHARIAAWRREVSLQRTRERRPDLSHPD , readout=protein production) returns failed
